Test system: NCI-H522
Assay: NCI tumour cell line growth inhibition, 48 h
Calls of active or inactive are those of the source. Rule as the data show it: active = GI50 up to about 1.1 µM and inactive = higher.
Possible outcomes: 1 = active, 0 = inactive

- CCOC(=O)c1sc2[n+](c1C)C(=O)/C(=C/c1ccccc1Cl)S2: 1
- CO[C@@H]1C=C[C@@]23c4cc5c(cc4C(O)N(CC2O)C3C1)OCO5 (stereo not given in full): 0
- COC(=O)[C@H]1ON2O[C@H](OC3CCCC[C@@H]3c3ccccc3)C[C@@H]3CC[C@H]1[C@@]32C (stereo not given in full): 0
- FC(F)(F)P1C2C=CC(CC2)C1(F)F (stereo not given): 0
- CCCN(CCC)C(=O)c1nc(N)nc(-c2ccc(OC)cc2)c1-c1ccc(OC)cc1: 0
